Listed compounds paired with reported EC20
Species on record: Mustela putorius furo
Test: Dose required to produce 20% increase in effective refractory period in male ferret.
Type: functional

Quick check: EC20 of CS(=O)(=O)Nc1ccc(CCN2CCN(C(=O)c3ccc([N+](=O)[O-])cc3)CC2)cc1 ?
160 nM

# EC20 lookup, item O=C(c1ccc(Cl)cc1)C1CCN(CCc2ccc([N+](=O)[O-])cc2)CC1
300 nM

Consider the compound O=C(c1ccc([N+](=O)[O-])cc1)N1CCN(CCOc2ccc([N+](=O)[O-])cc2)CC1 and give its measured EC20.
60 nM

Item O=[N+]([O-])c1ccc(OCCN2CCN(c3ccc([N+](=O)[O-])cc3)CC2)cc1 has what recorded EC20?
350 nM

For the compound shown here, O=[N+]([O-])c1ccc(CCN2CCN(S(=O)(=O)c3ccc([N+](=O)[O-])cc3)CC2)cc1 , give the reported EC20.
1000 nM

Recorded EC20 for O=C(CN1CCN(C(=O)c2ccc([N+](=O)[O-])cc2)CC1)Nc1ccc([N+](=O)[O-])cc1 , please?
35 nM

Entry under review: O=C(c1ccc([N+](=O)[O-])o1)N1CCN(CCc2ccc([N+](=O)[O-])cc2)CC1 . Reported EC20?
140 nM

Value lookup for EC20; key = O=C(c1ccc([N+](=O)[O-])cc1)N1CCN(CCc2ccc([N+](=O)[O-])s2)CC1
10 nM

Could you share which EC20 value was measured for Nc1ccc(OCCN2CCN(c3ccc(N)cc3)CC2)cc1 ?
>100000 nM

###

Organism: Mustela putorius furo
Test: Dose required to produce 20% increase in effective refractory period in male ferret.
Format: functional
experimental_endpoint: log10 EC20 (log10 of the value in nM)
The base-10 logarithm of EC20, taken with EC20 in nM, is what appears here.

Below are worked cases with known answers.
{"structure_string": "O=C(c1ccncc1)N1CCN(CCc2ccc([N+](=O)[O-])cc2)CC1", "log10 EC20": 3.00}
{"structure_string": "CS(=O)(=O)Nc1ccc(OCCN2CCN(C(=O)c3ccc(NS(C)(=O)=O)cc3)CC2)cc1", "log10 EC20": 4.18}

What value of measured log10 EC20 is listed for O=C(c1ccccc1)N1CCN(CCc2ccc([N+](=O)[O-])cc2)CC1 ?
2.15

For the compound shown here, O=C(c1ccc([N+](=O)[O-])cc1)N1CCN(C(=O)c2ccc([N+](=O)[O-])cc2)CC1 , give the reported log10 EC20.
3.85

Sample O=C(c1ccc([N+](=O)[O-])s1)N1CCN(CCc2ccc([N+](=O)[O-])cc2)CC1 — what was its log10 EC20?
1.08
